molecular target: T1, SH2D2A SH2 domain (human, UniProt Q9NP31 95-186); test: peptide or protein array; SH2/PTB proteins spotted on aldehyde slides, rhodamine peptide titrated in buffer B (20 mM HEPES, 100 mM KCl, 0.1% Tween-20, 5 mM DTT, pH 7.8), 1 h at room temperature; replicate assays; details: both partners purified
T1 construct: SH2D2A, human; source: bacterial expression, purified
T1 sequence (Q9NP31 95-186): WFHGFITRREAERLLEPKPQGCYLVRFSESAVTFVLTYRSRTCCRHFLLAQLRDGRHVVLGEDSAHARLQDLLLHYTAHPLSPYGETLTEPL
Non-standard residues stand in square brackets, D forms with d. No end group written: not given here. pY = N[C@@H](Cc1ccc(OP(=O)(O)O)cc1)C(=O)O; Rhodamine = not defined here
metric.name: pKd
pKd field: float, defined as -log10 of concentration (mol/L).

Query (binder): Rhodamine-ETDG[pY]VAPLTCSD (reading uncertain) [ErbB2 pY1127 phosphopeptide, rhodamine-labelled, for protein microarrays] ; field requested: pKd
5.56
